biological target: AmpC β-lactamase (Escherichia coli, UniProt P00811); construct: made in house; assay: biochemical; format: biochemical; settings: Table 1; read-out: Ki
Sequence (P00811 20-377): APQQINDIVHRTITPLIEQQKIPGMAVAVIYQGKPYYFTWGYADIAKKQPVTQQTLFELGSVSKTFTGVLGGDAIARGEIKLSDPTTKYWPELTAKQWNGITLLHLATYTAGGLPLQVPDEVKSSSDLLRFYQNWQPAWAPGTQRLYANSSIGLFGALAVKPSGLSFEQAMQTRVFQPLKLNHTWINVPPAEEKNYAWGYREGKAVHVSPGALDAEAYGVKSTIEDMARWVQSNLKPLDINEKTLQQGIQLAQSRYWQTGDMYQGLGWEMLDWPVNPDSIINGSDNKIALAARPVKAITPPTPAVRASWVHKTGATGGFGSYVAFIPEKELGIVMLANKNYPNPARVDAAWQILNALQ
PROPERTY: pKi
# reply with the number alone; pKi is -log10 of concentration in mol/L

[[record]]
molecule = "O=S(=O)(Cc1ccccc1)N[C@@H](Cc1ccccc1)B(O)O [Compound 16]"
property = "pKi"
value_reported = 5.43


Consider now this further molecule.
// sample O=C(Cc1cccs1)N[C@@H](Cc1cccc(C(=O)O)c1)B(O)O [Compound 17c, reference compound] , its pKi was 7.41

----------
The entries below are paired with their reported Selectivity vs AmpC (comparison of IC50 values).
tested on: Trypsin; assay: Trypsin inhibition; assay type: biochemical; settings: Table 4h, Trypsin vs AmpC
Output: the number by itself.

Here are 4 compounds together with their reported answers.
[[record]]
compound = "O=S(=O)(NCB(O)O)c1ccc(-c2nnn[nH]2)cc1C(F)(F)F [CR192]"
value_reported = 6000000

[[record]]
compound = "O=C(O)c1cccc(CS(=O)(=O)NCB(O)O)c1 [CR167]"
value_reported = 292308

[[record]]
compound = "O=S(=O)(NCB(O)O)c1ccc(-c2nn[nH]n2)cc1Cl [CR190]"
value_reported = 1187500

[[record]]
compound = "O=S(=O)(NCB(O)O)c1ccc(-c2nnn[nH]2)cc1 [CR157]"
value_reported = 306452


Consider now this further compound.
// sample O=S(=O)(NCB(O)O)c1ccc(-c2nn[nH]n2)nc1 [CR161] , its Selectivity vs AmpC (comparison of IC50 values) was 287879

----------
The entries below are paired with their reported Ligand efficiency.
target: AmpC β-lactamase (Escherichia coli); construct: made in house; experiment: biochemical; assay type: biochemical; details: Table 5

Here are 6 compounds together with their reported answers.
[[record]]
compound = "O=S(=O)(NCB(O)O)c1ccc(-c2nn[nH]n2)c(Cl)c1"
value_reported = 0.57

[[record]]
compound = "O=C(O)c1cccc(CS(=O)(=O)NCB(O)O)c1"
value_reported = 0.66

[[record]]
compound = "O=S(=O)(NCB(O)O)c1ccc(-c2nnn[nH]2)cc1C(F)(F)F"
value_reported = 0.60

[[record]]
compound = "O=S(=O)(NCB(O)O)c1ccc(-c2nnn[nH]2)cc1"
value_reported = 0.63

[[record]]
compound = "O=S(=O)(NCB(O)O)c1ccc(-c2nn[nH]n2)nc1"
value_reported = 0.64

[[record]]
compound = "O=S(=O)(NCB(O)O)c1ccc(-c2nn[nH]n2)cc1Cl"
value_reported = 0.65


// sample O=C(Cc1cccs1)N[C@H](B(O)O)c1cccc(C(=O)O)c1 [SM23, reference compound] , its Ligand efficiency was 0.55

----------
biological target: AmpC β-lactamase (Escherichia coli, UniProt P00811); construct: made in house; assay: biochemical; type: biochemical; conditions: Ki
The entries below are paired with their reported Ki.

Here are 2 molecules together with their reported answers.
[[record]]
molecule = "O=S(=O)(NCB(O)O)c1ccc(-c2nnn[nH]2)cc1 [CR157]"
value_reported = "0.8 to 1.3 nM"

[[record]]
molecule = "O=S(=O)(NCB(O)O)c1ccc(-c2nn[nH]n2)nc1 [CR161]"
value_reported = "0.8 to 1.3 nM"


// sample O=S(=O)(NCB(O)O)c1ccc(-c2nn[nH]n2)c(Cl)c1 [CR191] , its Ki was 3 nM

----------
Molecular target: cruzain (Trypanosoma cruzi, UniProt P25779)
Sequence (P25779 123-337 limits assumed): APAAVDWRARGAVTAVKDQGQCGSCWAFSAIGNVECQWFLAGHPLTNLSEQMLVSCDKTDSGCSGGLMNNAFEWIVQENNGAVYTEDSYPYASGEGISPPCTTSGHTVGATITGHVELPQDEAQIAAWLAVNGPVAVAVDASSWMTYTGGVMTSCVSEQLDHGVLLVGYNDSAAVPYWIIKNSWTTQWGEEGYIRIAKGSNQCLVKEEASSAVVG
Assay: Cruzain inhibition, Z-FR-AMC cleavage
Format: biochemical
Conditions: read-out: IC50
Experimental: Cruzain assays were performed in 100 mM sodium acetate pH 5.5 with 0.01% Triton-X and 5 mM dithiothreitol. Cruzain activity was measured in a 96-well format fluorimetric assay, monitoring the cleavage of the substrate Z-Phe-Arg-aminomethylcoumarin (Z-FR-AMC), in a SpectraMax M5, Molecular Devices spectrofluorimeter.
PROPERTY: IC50

Summary: O=C(O)c1ccc(CS(=O)(=O)NCB(O)O)cc1 , cruzain (Trypanosoma cruzi, UniProt P25779), IC50 = > 500 µM

----------
molecular target: CTX-M-9 β-lactamase (Escherichia coli, UniProt Q9L5C8); assay: biochemical; type: biochemical; details: read-out: Ki corresponding to the IC50 values
Sequence (Q9L5C8 29-291): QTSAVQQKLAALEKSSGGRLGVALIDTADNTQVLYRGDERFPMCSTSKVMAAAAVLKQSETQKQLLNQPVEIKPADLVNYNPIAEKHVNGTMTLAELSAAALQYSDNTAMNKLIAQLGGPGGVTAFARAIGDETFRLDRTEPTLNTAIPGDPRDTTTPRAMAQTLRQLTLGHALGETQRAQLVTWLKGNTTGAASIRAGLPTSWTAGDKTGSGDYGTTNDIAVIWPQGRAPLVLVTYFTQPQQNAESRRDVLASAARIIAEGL
PROPERTY: pKi
# reply with the number alone; pKi is -log10 of concentration in mol/L

Summary: O=S(=O)(Cc1ccccc1)NCB(O)O , CTX-M-9 β-lactamase (Escherichia coli, UniProt Q9L5C8), pKi = 5.60

----------
target: AmpC β-lactamase (Escherichia coli, UniProt P00811); construct: made in house; assay: biochemical; format: biochemical; settings: Ki Vs AmpC, Table 7
The entries below are paired with their reported pKi.
# reply with the number alone; pKi is -log10 of concentration in mol/L

Here are 6 molecules together with their reported answers.
[[record]]
molecule = "CC(C)[C@H](NS(=O)(=O)Cc1ccccc1)B(O)O [CR173]"
tested_system = "AmpC β-lactamase (Escherichia coli, UniProt P00811)"
value_reported = 4.89

[[record]]
molecule = "CC(C)[C@H](NS(C)(=O)=O)B(O)O [CR175]"
tested_system = "AmpC β-lactamase (Escherichia coli, UniProt P00811)"
value_reported = 4.00

[[record]]
molecule = "N#Cc1ccc(S(=O)(=O)NCB(O)O)cc1 [CR162]"
tested_system = "AmpC β-lactamase (Escherichia coli, UniProt P00811)"
value_reported = 6.51

[[record]]
molecule = "N#Cc1ccc(S(=O)(=O)NCB(O)O)cn1 [CR163]"
tested_system = "AmpC β-lactamase (Escherichia coli, UniProt P00811)"
value_reported = 6.57

[[record]]
molecule = "Cc1ccc(S(=O)(=O)N(CB(O)O)C(C)(C)C)cc1 [CR17]"
tested_system = "AmpC β-lactamase (Escherichia coli, UniProt P00811)"
value_reported = 5.60

[[record]]
molecule = "CC(C)(C)N(CB(O)O)S(=O)(=O)Cc1ccccc1 [CR22]"
tested_system = "AmpC β-lactamase (Escherichia coli, UniProt P00811)"
value_reported = 5.29


// sample C[C@H](NS(=O)(=O)Cc1ccccc1)B(O)O [GBS34] , its pKi was 6.51

// sample O=S(=O)(NCB(O)O)c1ccc(-c2nnn[nH]2)cc1 [CR157] , its pKi was 8.92

// sample O=S(=O)(NCB(O)O)c1ccc(-c2nn[nH]n2)nc1 [CR161] , its pKi was 9.10

// sample O=S(=O)(NCB(O)O)c1ccc(-c2nn[nH]n2)cc1Cl [CR190] , its pKi was 9.70

----------
molecular target: CTX-M-9 β-lactamase (Escherichia coli); test: biochemical; type: biochemical; conditions: Table 8; read-out: Ki vs CTX-M-9
PROPERTY: Ki (nM)
Provide the reading as a plain figure in nM.

[[record]]
compound = "O=S(=O)(NCB(O)O)c1ccc(-c2nnn[nH]2)cc1 [CR157]"
property = "Ki"
units_of_measure = "nM"
value_reported = 2500

[[record]]
compound = "O=S(=O)(NCB(O)O)c1ccc(-c2nn[nH]n2)nc1 [CR161]"
property = "Ki"
units_of_measure = "nM"
value_reported = 3900

[[record]]
compound = "O=S(=O)(NCB(O)O)c1ccc(-c2nn[nH]n2)c(Cl)c1 [CR191]"
property = "Ki"
units_of_measure = "nM"
value_reported = 2500


// sample O=S(=O)(NCB(O)O)c1ccc(-c2nnn[nH]2)cc1C(F)(F)F [CR192] , its Ki was 1800

// sample O=S(=O)(NCB(O)O)c1ccc(-c2nn[nH]n2)cc1Cl [CR190] , its Ki was 1400

// sample O=C(O)c1ccc(CS(=O)(=O)NCB(O)O)cc1 [Compound 9] , its Ki was 550

----------
target: AmpC β-lactamase (Escherichia coli, UniProt P00811); construct: made in house; assay: biochemical; assay type: biochemical
Doc: threshold 2 nM (exclusive). Items with IC50 beneath it return yes; others return no.

Worked examples follow.
[[record]]
molecule = "O=S(=O)(NCB(O)O)c1ccc(-c2nnn[nH]2)cc1C(F)(F)F"
group_label = "yes"

[[record]]
molecule = "O=S(=O)(NCB(O)O)c1ccc(-c2nn[nH]n2)cc1Cl"
group_label = "yes"

[[record]]
molecule = "O=C(O)c1cccc(CS(=O)(=O)NCB(O)O)c1"
group_label = "no"

[[record]]
molecule = "O=S(=O)(NCB(O)O)c1ccc(-c2nn[nH]n2)nc1"
group_label = "no"

[[record]]
molecule = "O=S(=O)(NCB(O)O)c1ccc(-c2nnn[nH]2)cc1"
group_label = "no"


Please examine the following record next.
Problem: Lab note: IC50 threshold 2 nM. Does this compound come in strictly under it? O=S(=O)(NCB(O)O)c1ccc(-c2nn[nH]n2)c(Cl)c1
Solution: yes

----------
biological target: AmpC β-lactamase (Escherichia coli); construct: made in house; assay: biochemical; type: biochemical; conditions: read-out: Ki
PROPERTY: Ki (nM)
Provide the reading as a plain figure in nM.

[[record]]
molecule = "CCOc1ccc2ccccc2c1S(=O)(=O)NCB(O)O [Compound 11]"
property = "Ki"
value_reported = 670


Consider now this further molecule.
// sample CS(=O)(=O)NCB(O)O [Compound 3] , its Ki was 789
